System: A2780
Assay: MTS Assay, cell proliferation analysis (A2780)
Assay type: cell-based
Assay context: Homo sapiens; A2780 cells; 72 hours; 10 Percent FBS
pIC50: −log10 of the molar value.
Recorded endpoint: pIC50

Here is how some molecules turned out for pIC50.
{"Molecule": "Cc1ccc(S(=O)(=O)NC2(c3ccc(-c4nnc5n4-c4cccnc4Nc4ccccc4-5)cc3)CCC2)cc1 [Example 198]", "pIC50": 4.92}
{"Molecule": "Cc1ccc(NC(=O)NC2CCN(Cc3ccc(-c4nnc5n4-c4cccnc4Nc4ccccc4-5)cc3)CC2)cc1 [Example 168]", "pIC50": 4.82}
{"Molecule": "O=C(NCCc1ccc(-c2nnc3n2-c2cccnc2Nc2ccccc2-3)cc1)Nc1ccccc1 [Example 110]", "pIC50": 5.22}

I = O=C(NCc1ccc(-c2nnc3n2-c2cccnc2Nc2ccccc2-3)cc1)Nc1ccccc1F [Example 121]
II = Clc1ccc2nc(CCNCc3ccc(-c4nnc5n4-c4cccnc4Nc4ccccc4-5)cc3)[nH]c2c1 [Example 203]
Between these two entries, I and II , state which has the higher pIC50. Give the label under which the chosen entry appears. II
(II: 5.00, I: 4.80)

a = O=S(=O)(NCc1ccc(-c2nnc3n2-c2cccnc2Nc2ccccc2-3)cc1)c1cccc(Cl)c1 [Example 116]
b = Brc1ccc2c(c1)-c1nnc(-c3ccc(CN4CCC(c5nnc(-c6ccccn6)[nH]5)CC4)cc3)n1-c1cccnc1N2 [Example 228]
Larger number for pIC50: a , or b ? Indicate which entry you chose by stating its label. b
(b: 4.89, a: 4.68)

A = COc1cccc(S(=O)(=O)NCc2ccc(-c3nnc4n3-c3cccnc3Nc3ccccc3-4)cc2)c1 [Example 114]
B = Fc1ccc2c(CCNCc3ccc(-c4nnc5n4-c4cccnc4Nc4ccccc4-5)cc3)c[nH]c2c1 [Example 202]
Form: Entry with minimum pIC50 (choose one): A / B Choose, then provide that item's label. A
(A: 4.80, B: 5.40)

====

Target system: AKT1 (Homo sapiens (Human), UniProt P31749)
Sequence (P31749 whole entry): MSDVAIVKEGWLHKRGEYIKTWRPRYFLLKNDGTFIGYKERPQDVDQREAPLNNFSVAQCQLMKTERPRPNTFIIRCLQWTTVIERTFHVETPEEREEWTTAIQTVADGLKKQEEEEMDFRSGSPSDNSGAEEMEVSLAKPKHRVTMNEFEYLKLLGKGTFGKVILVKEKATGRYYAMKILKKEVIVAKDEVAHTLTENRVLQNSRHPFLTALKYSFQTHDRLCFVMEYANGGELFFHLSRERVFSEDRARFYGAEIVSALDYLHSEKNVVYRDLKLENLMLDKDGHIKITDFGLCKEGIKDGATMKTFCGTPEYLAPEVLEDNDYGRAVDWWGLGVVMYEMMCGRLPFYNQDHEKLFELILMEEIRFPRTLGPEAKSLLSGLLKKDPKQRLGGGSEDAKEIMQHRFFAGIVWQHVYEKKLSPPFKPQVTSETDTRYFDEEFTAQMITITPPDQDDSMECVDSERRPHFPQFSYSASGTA
Assay: Inactive Akt Alpha Screen Assay
Assay context: non *labeled: Akt Alpha Screen assay; read-out: AKT1 biochemical assay, IC50
pIC50: −log10 of the molar value.
Recorded endpoint: pIC50

Consider the reported pIC50 for these compounds:
{"Smiles entry": "Cc1cccc(NC(=O)NC2CCN(Cc3ccc(-c4nnc5n4-c4cccnc4Nc4ccccc4-5)cc3)CC2)c1", "Value observed": 6.18}
{"Smiles entry": "O=S(=O)(NC1(c2ccc(-c3nnc4n3-c3cccnc3Nc3ccccc3-4)cc2)CCC1)c1cccc(F)c1", "Value observed": 6.12}
{"Smiles entry": "Cc1ccc(CN2CCN(Cc3ccc(-c4nnc5n4-c4cccnc4Nc4ccccc4-5)cc3)CC2)cc1", "Value observed": 5.55}

A = O=C(CCc1ccccc1)Nc1ccc(-c2nnc3n2-c2cccnc2Nc2ccccc2-3)cc1
B = O=C(Nc1ccc(-c2nnc3n2-c2cccnc2Nc2ccccc2-3)cc1)c1ccc2ccccc2c1
C = O=C(NCc1ccc(-c2nnc3n2-c2cccnc2Nc2ccccc2-3)cc1)Nc1ccccc1F
Order the records, beginning with the lowest pIC50 and ending with the highest. Please express your ranking as an ordered list of the labels. A, B, C
(A: 5.74, B: 6.17, C: 6.51)

====

Target system: UniProtKB P31749
Assay: Inactive Akt Alpha Screen Assay
Assay context: non *labeled: Akt Alpha Screen assay; read-out: AKT1 biochemical assay, IC50
pIC50: −log10 of the molar value.
Recorded endpoint: pIC50

Worked examples follow.
{"Compound": "O=C(NCCc1cccs1)NC1CCN(Cc2ccc(-c3nnc4n3-c3cccnc3Nc3ccccc3-4)cc2)CC1 [Example 182]", "Target system": "UniProtKB P31749", "Value observed": 6.12}
{"Compound": "c1coc(-c2nnc3n2-c2cccnc2Nc2ccccc2-3)c1 [Example 2]", "Target system": "UniProtKB P31749", "Value observed": 5.20}

A = CCCC(=O)Nc1ccc(-c2nnc3n2-c2cccnc2Nc2ccccc2-3)cc1 [Example 32]
B = CCOC(=O)N1CCC(NCc2ccc(-c3nnc4n3-c3cccnc3Nc3ccccc3-4)cc2)CC1 [Example 89]
I'm curious whether A or B has the smaller pIC50 number. Which is it? Give the label of your selection. B
(B: 5.64, A: 6.14)
